Measured melting point, listed per entry.

A selection of reference data follows.
* O=C(Nc1ccc(Oc2ccccc2)cc1)N1CCN(c2ccnc3ccc(Cl)cc23)CC1 | 188 to 189 °C
* COc1cc2ncnc(N3CCN(C(=O)Nc4ccc(-n5cccc5)cc4)CC3)c2cc1OC | 224 to 226 °C
* COc1cc2ncnc(N3CCN(C(=O)Nc4ccc5[nH]ccc5c4)CC3)c2cc1OC | 209 to 210 °C
* COc1cc2ncnc(N3CCN(C(=O)Nc4cc(C)cc(C)c4)CC3)c2cc1OC | 223 to 226 °C

melting point for O=C(Nc1ccc(Oc2ccccc2)cc1)N1CCN(c2ncnc3cc(Cl)c([N+](=O)[O-])cc23)CC1 is 190 to 191 °C

melting point for COc1cc2ncnc(N3CCN(C(=S)NCc4ccc(N(C)C)cc4)CC3)c2cc1OC is 177 to 178 °C

melting point for CCn1c(=O)n(CC)c2cc3c(N4CCN(C(=O)Nc5ccc(Oc6ccccc6)cc5)CC4)ncnc3cc21 is 168 to 169 °C

melting point for CCSc1ccc(NC(=O)N2CCN(c3ncnc4cc(OC)c(OC)cc34)CC2)cc1 is 208 to 209 °C

* * *

Measured melting point, listed per entry.

A selection of reference data follows.
• CC(C)c1ccc(NC(=O)N2CCN(c3ncnc4ccc(Cl)cc34)CC2)cc1 = 192 to 193 °C
• COc1cc2ncnc(N3CCN(C(=O)Nc4ccc(CN5CCCCC5)cc4)CC3)c2cc1OC = 122 to 123 °C
• COc1cc2ncnc(N3CCN(C(=O)Nc4ccc(F)cc4)CC3)c2cc1OC = 198 to 202 °C
• COc1ccc2ncnc(N3CCN(C(=S)NCc4ccccc4)CC3)c2c1 = 68 to 70 °C
• COc1cc2ncnc(N3CCN(C(=S)Nc4ccc(Br)cc4)CC3)c2cc1OC = 170 to 171 °C

melting point for COc1cc2c(N3CCN(C(=S)NCc4cccnc4)CC3)ncnc2cc1OC(C)C is 205 to 206 °C

melting point for CCc1cccc(NC(=O)N2CCN(c3ncnc4cc(OC)c(OC)cc34)CC2)c1 is 207 to 208 °C

melting point for COc1cc2ncnc(N3CCN(C(=S)NCc4cccc5ccccc45)CC3)c2cc1OC is 164 to 165 °C

* * *

Measured melting point, listed per entry.

- CCOc1cc2ncnc(N3CCN(C(=O)Nc4ccc(Oc5ccccc5)cc4)CC3)c2cc1OCC: 187 to 190 °C

melting point for COc1cc2ncnc(N3CCN(C(=O)NCCc4ccc(Cl)cc4)CC3)c2cc1OC is 177 to 178 °C

melting point for O=C(Nc1ccc(Oc2ccccc2)cc1)N1CCN(c2ccnc3cc(C(F)(F)F)ccc23)CC1 is 163 to 164 °C

* * *

target: UniProtKB P09619; experiment: Inhibitory effect on phosphorylation of PDGF receptor; details: CHO cells expressing human β-PDGF receptor
Sequence (P09619 33-1106): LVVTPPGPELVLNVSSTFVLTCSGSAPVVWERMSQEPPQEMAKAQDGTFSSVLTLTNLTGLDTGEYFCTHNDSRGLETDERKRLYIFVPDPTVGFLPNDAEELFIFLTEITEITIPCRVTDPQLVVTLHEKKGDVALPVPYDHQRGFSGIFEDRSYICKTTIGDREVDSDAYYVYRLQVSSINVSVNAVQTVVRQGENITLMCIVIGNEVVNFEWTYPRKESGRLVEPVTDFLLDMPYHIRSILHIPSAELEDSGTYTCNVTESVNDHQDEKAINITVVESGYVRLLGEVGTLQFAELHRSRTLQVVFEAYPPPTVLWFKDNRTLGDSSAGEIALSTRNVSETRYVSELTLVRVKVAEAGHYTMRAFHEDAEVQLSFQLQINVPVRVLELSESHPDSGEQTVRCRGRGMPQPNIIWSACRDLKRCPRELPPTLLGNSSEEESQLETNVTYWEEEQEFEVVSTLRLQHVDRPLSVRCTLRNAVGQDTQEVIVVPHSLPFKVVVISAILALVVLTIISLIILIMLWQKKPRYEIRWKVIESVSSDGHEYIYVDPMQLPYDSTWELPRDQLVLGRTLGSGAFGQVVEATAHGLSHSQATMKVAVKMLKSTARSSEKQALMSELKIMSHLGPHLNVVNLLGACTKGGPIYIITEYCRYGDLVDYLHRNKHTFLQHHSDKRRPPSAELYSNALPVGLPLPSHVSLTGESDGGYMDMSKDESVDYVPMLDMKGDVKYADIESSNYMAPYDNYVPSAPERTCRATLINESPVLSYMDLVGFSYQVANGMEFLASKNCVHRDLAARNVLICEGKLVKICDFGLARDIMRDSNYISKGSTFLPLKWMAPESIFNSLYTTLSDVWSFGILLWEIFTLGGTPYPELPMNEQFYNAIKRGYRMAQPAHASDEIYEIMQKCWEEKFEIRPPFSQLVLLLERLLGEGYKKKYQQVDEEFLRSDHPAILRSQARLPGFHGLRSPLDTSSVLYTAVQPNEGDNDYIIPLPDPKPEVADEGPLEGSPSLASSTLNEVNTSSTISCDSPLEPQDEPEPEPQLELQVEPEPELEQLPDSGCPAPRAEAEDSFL
Result type: log10 of IC50 (log10 of the value in nM)
Recorded IC50 (log10, nM)

• COc1cc2ncnc(N3CCN(C(=S)Nc4ccccc4[N+](=O)[O-])CC3)c2cc1OC [Compound 78] = 2.76

log10 of IC50 for COc1cc2ncnc(N3CCN(C(=S)Nc4cccc([N+](=O)[O-])c4)CC3)c2cc1OC [Compound 79] is 2.08

log10 of IC50 for O=C(Nc1ccc(Oc2ccccc2)cc1)N1CCN(c2ncnc3cc(Cl)c([N+](=O)[O-])cc23)CC1 [Compound 357] is 2.28

Hello, the source for this data is patent US6472391B2, in case you need it.
